tested on: EKVX NSCLC; experiment: NCI tumour cell line growth inhibition, 48 h
recordedMetric: TGI

compound	recordedMetric	result
CC1(C)CC(=O)C2=C(C1)NC(SCC(=O)O)=C(C#N)C2c1ccc(Br)cc1 (stereo not drawn)	TGI	> 100 µM
COc1ccc2c(c1)c(=O)c1c(NCCCN(C)CCCNc3ccc4c(=O)n(CCN(C)C)c(=O)n5c6ccc(OC)cc6c(=O)c3c45)ccc3c(=O)n(CCN(C)C)c(=O)n2c31	TGI	1.3 µM
N#CCN1CCCCCc2ccccc21	TGI	> 100 µM
CC(C)=NNc1cnnc2ccc([N+](=O)[O-])cc12	TGI	> 100 µM
CN(C)NC1=NS(=O)(=O)c2cc3c(cc2S1)N(N(C)C)C(=O)c1cc2c(cc1N(N(C)C)C3=O)SC(NN(C)C)=NS2(=O)=O	TGI	> 10 µM
CCOC(=O)CN=C1Nc2ccccc2C(=O)N2CSCC12 (stereo not drawn)	TGI	> 100 µM
C[C@@H]1O[C@@H](O[C@@H]2[C@@H](O)[C@H](OCCc3ccc(O)c(O)c3)O[C@H](COC(=O)/C=C/c3ccc(O)c(O)c3)[C@H]2O)[C@H](O)[C@H](O)[C@H]1O	TGI	> 100 µM
CCOC(=O)/C(=C\c1ccc(OCc2ccccc2)c(OC)c1)C(=O)c1ccccc1	TGI	66.2 µM
